Can you tell me binding score for the items I'm about to list?
Target: SARS-CoV-2 spike RBD (WT) (Severe acute respiratory syndrome …, UniProt P0DTC2)
Test: ELISA
Set-up: unit not given here

Solved cases (2 shown):
binder	binding score
D038 (antibody, V domains shown) VH: EVQLVQSGAEVKKPGESLKISCKGSGYSFTSYWIAWVRQMPGKGLEWMGIIYPGDSDTRYSPSFQGQVTISADKSISTAYLQWSSLKASDTAMYYCARQGYSYGYVDYWGQGTLVTVSS VL: NFMLTQPHSVSESPGKTVTISCTRSSGSIASNYVQWYQQRPGSAPTTVIYEDNQRPSGVPDRFSGSIDSSSNSASLTISGLKTEDEADYYCQSYDSSNWVFGGGTKLTVL	> 10000
D185 (antibody, V domains shown) VH: QVQLVQSGAEVKKPGSSVKVSCKASGGTFSSYAISWVRQAPGQGLEWMGGIIPIFGTANYAQKFQGRVTITADKSTSTAYMELSSLRSEDTAVYYCARAQQQLVQHGGYGMDVWGQGTTVTVSS VL: QSVLTQPPSVSGAPGQRVTISCTGSSSNIGAGYDVHWYQQLPGTAPKLLIYGNSNRPSGVPDRFSGSKSGTSASLAITGLQAEDEADYYCQSYDSSLSAVVFGGGTKLTVL	> 10000

Tell us which binding score value is on record for D142 (antibody, V domains shown) VH: QVQLVESGGGVVQPGRSLRLSCAASGFTFSSYGMHWVRQAPGKGLEWVAVISYDGSNKYYADSVKGRFTISRDNSKNTLYLQMNSLRAEDTAVYYCAKKPTMYYYDSSGYYYFDYWGQGTLVTVSS VL: QFVLTQPPSVSGAPGQRVTISCTGSSSNIGAGYDVHWYQQLPGTAPKLLIYGNSNRPSGVPDRFSGSKSGTSASLAITGLQAEDEADYYCQSYDSSLSGYVFGTGTKVTVL > 10000

# credit: paper PMC9876794
